# maps each entry to its pIC50
Target: Sialidase (Clostridium perfringens, UniProt P10481)
Sequence (P10481 whole entry): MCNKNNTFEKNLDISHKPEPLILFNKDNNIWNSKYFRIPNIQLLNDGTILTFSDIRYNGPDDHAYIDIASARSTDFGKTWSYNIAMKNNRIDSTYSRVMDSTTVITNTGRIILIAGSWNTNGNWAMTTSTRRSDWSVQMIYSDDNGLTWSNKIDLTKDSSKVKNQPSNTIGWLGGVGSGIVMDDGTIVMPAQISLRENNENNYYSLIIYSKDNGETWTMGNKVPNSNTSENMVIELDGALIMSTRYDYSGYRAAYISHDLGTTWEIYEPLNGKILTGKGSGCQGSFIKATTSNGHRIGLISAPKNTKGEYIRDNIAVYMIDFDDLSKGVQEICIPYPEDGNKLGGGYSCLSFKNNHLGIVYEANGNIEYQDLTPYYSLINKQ
pIC50: −log10 of the molar value.
Measurement kind: pIC50

Smiles notation	Measurement kind	Obs value
CC1(C)C=Cc2cc3c(cc2O1)O[C@H]1c2ccc(O)cc2OC[C@@H]31	pIC50	4.85
COc1ccc2c3c(oc2c1CC=C(C)C)-c1ccc(O)cc1OC3	pIC50	5.68
O=c1c(O)c(-c2ccc(O)c(O)c2)oc2cc(O)cc(O)c12	pIC50	4.60
CC(C)=CCc1cc2c(cc1O)OC[C@H]1c3ccc(O)cc3O[C@@H]21	pIC50	5.80

* * *

A collection of molecules and their measured IC50
Biological target: Sialidase (Clostridium perfringens)
Sequence (P10481 whole entry): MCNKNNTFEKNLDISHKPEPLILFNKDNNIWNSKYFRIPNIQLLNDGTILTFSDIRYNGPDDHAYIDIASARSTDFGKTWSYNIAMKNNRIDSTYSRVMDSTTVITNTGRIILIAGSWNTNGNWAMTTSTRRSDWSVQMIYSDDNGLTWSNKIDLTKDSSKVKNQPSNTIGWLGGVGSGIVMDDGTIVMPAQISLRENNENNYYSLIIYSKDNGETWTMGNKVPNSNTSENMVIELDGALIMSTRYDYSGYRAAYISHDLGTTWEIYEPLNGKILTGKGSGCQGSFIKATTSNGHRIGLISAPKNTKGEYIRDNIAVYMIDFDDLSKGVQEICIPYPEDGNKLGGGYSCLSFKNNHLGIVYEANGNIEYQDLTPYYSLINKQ
Measurement kind: IC50 (nM)

Molecule	Test system	Units symbol	Obs value
COc1ccc2c(c1CC=C(C)C)O[C@H]1c3cc(CC=C(C)C)c(O)cc3OC[C@@]21O	Sialidase (Clostridium perfringens)	nM	2040
CC(C)=CCc1c(O)ccc2c1O[C@H]1c3cc4c(cc3OC[C@@H]21)OC(C)(C)C(O)C4 (some centres undefined)	Sialidase (Clostridium perfringens)	nM	2790
CC(C)=CCc1cc2c(cc1O)OC[C@@]1(O)c3ccc4c(c3O[C@@H]21)C=CC(C)(C)O4	Sialidase (Clostridium perfringens)	nM	1300
CC(C)=CCc1cc2c(cc1O)O[C@H]1c3ccc(O)cc3OC[C@@H]21	Sialidase (Clostridium perfringens)	nM	2010

* * *

Target: UniProt:P10481
Sequence (P10481 whole entry): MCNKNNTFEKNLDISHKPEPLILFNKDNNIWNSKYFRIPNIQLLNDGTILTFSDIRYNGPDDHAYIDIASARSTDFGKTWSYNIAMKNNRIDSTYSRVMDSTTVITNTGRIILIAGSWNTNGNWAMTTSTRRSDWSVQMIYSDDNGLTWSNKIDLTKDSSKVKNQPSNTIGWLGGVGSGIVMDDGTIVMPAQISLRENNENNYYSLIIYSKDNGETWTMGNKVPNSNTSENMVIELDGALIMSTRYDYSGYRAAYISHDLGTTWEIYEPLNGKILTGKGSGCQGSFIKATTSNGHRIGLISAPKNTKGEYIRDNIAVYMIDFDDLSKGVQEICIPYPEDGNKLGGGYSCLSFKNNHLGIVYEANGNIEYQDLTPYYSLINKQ
pIC50: −log10 of the molar value.
Give Criterion met when the value for pIC50 is at least 5. Give Criterion not met when it is less.

Compound	Assigned label
CC(C)=CCc1cc2c(cc1O)OC[C@H]1c3ccc4c(c3O[C@@H]21)CC(O)C(C)(C)O4 (stereo partly drawn)	Criterion not met
CC1(C)C=Cc2cc3c(cc2O1)OC[C@H]1c2ccc(O)cc2O[C@@H]31	Criterion not met
CC1(C)Oc2ccc3c(c2CC1O)O[C@H]1c2ccc(O)cc2OC[C@@H]31 (stereo partly drawn)	Criterion not met
Oc1ccc2c(c1)O[C@H]1c3ccc(O)cc3OC[C@@H]21	Criterion met
CC(C)=CCc1c(O)ccc2c3c(oc12)-c1cc(C=O)c(O)cc1OC3	Criterion met
COc1ccc2c(c1CC=C(C)C)O[C@H]1c3ccc(O)cc3OC[C@@]21O	Criterion met
CC1(C)C=Cc2c(ccc3c2O[C@H]2c4ccc(O)cc4OC[C@@H]32)O1	Criterion not met
CC1(C)Oc2ccc3c(c2CC1O)O[C@@H]1c2ccc(O)cc2OC[C@H]31 (stereo partly drawn)	Criterion not met
